Reference source for all entries: patent US11945822B2

Target: CDK3/CycC (Homo sapiens, UniProt Q00526)
Sequence (Q00526 whole entry): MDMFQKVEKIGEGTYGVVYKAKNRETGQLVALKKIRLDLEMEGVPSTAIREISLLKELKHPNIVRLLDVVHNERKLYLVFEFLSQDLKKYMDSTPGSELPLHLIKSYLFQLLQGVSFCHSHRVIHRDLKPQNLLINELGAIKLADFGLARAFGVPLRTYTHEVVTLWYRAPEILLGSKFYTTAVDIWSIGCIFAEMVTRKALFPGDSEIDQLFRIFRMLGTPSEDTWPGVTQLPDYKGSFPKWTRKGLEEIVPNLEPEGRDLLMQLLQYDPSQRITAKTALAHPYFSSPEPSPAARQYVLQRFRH
Sequence (P24863 whole entry partner): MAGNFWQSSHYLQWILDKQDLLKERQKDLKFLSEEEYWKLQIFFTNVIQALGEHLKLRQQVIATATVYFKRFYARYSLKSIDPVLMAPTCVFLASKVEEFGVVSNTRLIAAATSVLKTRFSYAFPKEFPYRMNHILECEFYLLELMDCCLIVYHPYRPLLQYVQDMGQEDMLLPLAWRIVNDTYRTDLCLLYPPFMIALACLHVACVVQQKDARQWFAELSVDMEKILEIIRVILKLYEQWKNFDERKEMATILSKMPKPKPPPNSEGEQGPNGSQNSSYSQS
Test: In vitro IC50 profile for CDKs family kinase (33PanQinase radiometric assay)
Conditions: CDK7 selectivity profile in CDKs family
Experimental: In Vitro IC50 Profile for CDK7 Inhibitor Among 28 CDKs Family Kinases. The IC50 profile of compounds were determined using 28 CDKs family protein kinases through ProQinase GmbH (Freiburg, Germany). […] Kinases from external vendors, Carna Biosciences Inc.; Invitrogen Corp.; and Millipore Corp., were expressed, purified and quality-controlled by virtue of the vendors readings. […] Incorporation of ^33Pi was determined with a microplate scintillation counter (Microbeta, Wallac). […]
RESULT_TYPE: IC50

Can you look up the measured IC50 of CC(C)c1cnn2c(NCc3c(Cl)cccc3-n3ccc(C(C)(C)O)n3)nc(N3CCC(N)CC3)nc12 [Compound 210] for me?
> 10 µM
